Biological target: SvelOBP1
Experiment: Competitive fluorescence binding assay (displacement of 1-NPN)
Parameters: species or system Sympiezomias velatus
Details: Ki=IC50/(1+[1-NPN]/K1-NPN); 2 μM SvelOBP1/1-NPN, pH7.4; mean ± SEM; read-out: Ki (inhibitory constant)
pKi: −log10 of the molar value.
METRIC NAME: pKi

# COMPOUND, NUMERIC READOUT
rows = [
    ("C=CC(C)=CCC=C(C)C", 5.03),
    ("C=CC(C)(O)CCC=C(C)C (stereo not drawn)", 4.95),
    ("OCc1ccccc1", 5.03),
    ("CC1=CCC2C(C1)C2(C)C (stereo not drawn) [3,7,7-trimethylbicyclo [4.1.0]hept-3-ene]", 4.92),
    ("C=C(C)C1CC=C(C)CC1 (stereo not drawn)", 4.96),
    ("CCCC(=O)OCC [Ethyl butyrate]", 4.93),
    ("CCCCC(=O)OCC [Ethyl pentanoate]", 4.93),
    ("CCCCOC(C)=O [Butyl acetate]", 4.96),
    ("C=CC(O)CCCCC (stereo not drawn)", 4.90),
    ("CC(C)=CCC/C(C)=C/CC/C(C)=C/CO", 4.92),
    ("CCC/C=C/COC(=O)CCCCC [[(E)-hex-2-enyl] hexanoate]", 4.92),
    ("CC1=CCC(C(C)C)C=C1 (stereo not drawn)", 5.01),
    ("CC/C=C\\CCOC(C)=O [[(Z)-hex-3-enyl] acetate]", 4.92),
    ("CC12CCC(CC1)C(C)(C)O2", 4.94),
    ("CCCCCCCCCCCCCCCC(=O)O", 4.93),
]

src = paper PMC10890569
